test: Metabolic stability in human liver microsomes assessed as intrinsic clearance at 1 uM measured upto 60 mins by LC-MS/MS analysis; format: ADME, Microsome; conditions: read-out: CLH
OBSERVATION TYPE: CLint scaled at 1 µM (mL/min/kg)

{"COMPOUND STRUCTURE": "Cn1cc(-c2ccnc(-n3ncc4cc(C(C)(C)C)cc(F)c4c3=O)c2CO)cc(NC(=O)[C@@H]2C[C@@H]2F)c1=O", "CLint scaled at 1 µM (mL/min/kg)": 8}

[P] Cn1cc(-c2ccnc(-n3ncc4cc(C(C)(C)C)cc(F)c4c3=O)c2CO)cc(NC(=O)C2CC2)c1=O
[Q] Cn1cc(-c2ccnc(-n3ncc4cc(C(C)(C)C)cc(F)c4c3=O)c2CO)cc(NC(=O)[C@H]2C[C@@H]2F)c1=O
q: Of the pair P and Q , name the member with the lesser recorded CLint scaled at 1 µM. Choose, then provide that item's label.
a: P
(P: 3.2 mL/min/kg, Q: 8.5 mL/min/kg)

====

test: Metabolic stability in human Hepatocyte assessed as compound hydrolysis at 5 uM incubated for 3 hrs by LC-MS/MS analysis; assay type: ADME, cell-based; conditions: hepatocytes, read-out: Drug degradation
OBSERVATION TYPE: metabolised at 3 h, 5 µM

q: Recorded metabolised at 3 h, 5 µM for "Cn1cc(-c2ccnc(-n3ncc4cc(C(C)(C)C)cc(F)c4c3=O)c2CO)cc(NC(=O)[C@@H]2C[C@@H]2F)c1=O" , please?
a: ≤ 1%

====

assay: Lipophilicity, logD of compound at 7.4 by the LC/MS based microscale shake flask method; assay type: physicochemical; conditions: octanol/water, pH 7.4
OBSERVATION TYPE: logD

Sample records with logD:
{"COMPOUND STRUCTURE": "Cn1cc(-c2cc(F)cc(-n3ncc4cc(C(C)(C)C)cc(F)c4c3=O)c2CO)cc(NC(=O)[C@@H]2C[C@@H]2F)c1=O", "logD": 2.8}
{"COMPOUND STRUCTURE": "Cn1cc(-c2ccnc(N3CCc4c(cc5n4CCCC5)C3=O)c2CO)cc(NC(=O)C2CC2)c1=O", "logD": 1.2}

[1] Cn1cc(-c2ccnc(N3CCn4c(cc5c4CC(C)(C)C5)C3=O)c2CO)cc(NC(=O)C2CCC2)c1=O
[2] COCC(=O)Nc1cc(-c2ccnc(N3CCn4c(cc5c4CC(C)(C)C5)C3=O)c2CO)cn(C)c1=O
q: Which value of logD is numerically greater: that of 1 or that of 2 ? # respond with the chosen item's label
a: 1
(1: 3.3, 2: 1.5)

====

experiment: Metabolic stability in rat liver microsomes assessed as intrinsic clearance at 1 uM measured upto 60 mins by LC-MS/MS analysis; type: ADME, Microsome; conditions: read-out: CLH
OBSERVATION TYPE: CLint scaled at 1 µM (mL/min/kg)

Solved cases below.
{"COMPOUND STRUCTURE": "C[C@H]1CN(C2COC2)CCN1c1ccc(Nc2cc(-c3ccnc(N4CCn5c(cc6c5CC(C)(C)C6)C4=O)c3CO)cn(C)c2=O)nc1", "OBSERVATION TYPE": "CLint scaled at 1 µM", "EXPERIMENTAL RESULT": 14}
{"COMPOUND STRUCTURE": "Cn1cc(-c2ccnc(-n3ncc4cc(C(C)(C)C)cc(F)c4c3=O)c2CO)cc(NC(=O)C2CC2)c1=O", "OBSERVATION TYPE": "CLint scaled at 1 µM", "EXPERIMENTAL RESULT": 13}
{"COMPOUND STRUCTURE": "Cn1cc(-c2ccnc(-n3ncc4c5c(sc4c3=O)CCCC5)c2CO)cc(NC(=O)C2CC2)c1=O", "OBSERVATION TYPE": "CLint scaled at 1 µM", "EXPERIMENTAL RESULT": 8.4}
{"COMPOUND STRUCTURE": "Cn1cc(-c2ccnc(N3CCn4c(cc5c4CC(C)(C)C5)C3=O)c2CO)cc(NC(=O)C2CC2)c1=O", "OBSERVATION TYPE": "CLint scaled at 1 µM", "EXPERIMENTAL RESULT": 7.2}

[A] Cn1cc(-c2ccnc(-n3ncc4cc(C(C)(C)C)cc(F)c4c3=O)c2CO)cc(NC(=O)[C@H]2C[C@H]2F)c1=O
[B] Cn1nc(-c2ccnc(-n3ncc4cc(C(C)(C)C)cc(F)c4c3=O)c2CO)cc(NC(=O)[C@@H]2C[C@@H]2F)c1=O
q: For this pair, A and B , which shows a numerically higher CLint scaled at 1 µM? Write down the label attached to your selection.
a: B
(B: 16 mL/min/kg, A: 11 mL/min/kg)

====

assay: Metabolic stability in dog liver microsomes assessed as intrinsic clearance at 1 uM measured upto 60 mins by LC-MS/MS analysis; type: ADME, Canis lupus familiaris, Microsome; conditions: read-out: CLH
OBSERVATION TYPE: CLint scaled at 1 µM (mL/min/kg)

[a] Cn1cc(-c2ccnc(-n3ncc4cc(C(C)(C)C)cc(F)c4c3=O)c2CO)cc(NC(=O)[C@@H]2C[C@@H]2F)c1=O
[b] C[C@H]1CN(C2COC2)CCN1c1ccc(Nc2cc(-c3ccnc(N4CCn5c(cc6c5CC(C)(C)C6)C4=O)c3CO)cn(C)c2=O)nc1
q: API: POST /compare with a and b ; response names the item with higher CLint scaled at 1 µM. // respond with label for picked entry
a: b

====

assay: Metabolic stability in rat liver microsomes assessed as intrinsic clearance at 1 uM measured upto 60 mins by LC-MS/MS analysis; type: ADME, Microsome; details: read-out: CLH
OBSERVATION TYPE: CLint scaled at 1 µM (mL/min/kg)

{"COMPOUND STRUCTURE": "Cn1cc(-c2ccnc(-n3ncc4cc(C(C)(C)C)cc(F)c4c3=O)c2CO)cc(NC(=O)[C@@H]2C[C@H]2F)c1=O", "UNITS TEXT": "mL/min/kg", "EXPERIMENTAL RESULT": 15}

[1] Cn1cc(-c2ccnc(-n3ncc4cc(C(C)(C)C)cc(F)c4c3=O)c2CO)nc(NC(=O)[C@@H]2C[C@@H]2F)c1=O
[2] Cn1cc(-c2ccnc(N3CCc4c(cc5n4CCCC5)C3=O)c2CO)cc(NC(=O)C2CC2)c1=O
q: Out of 1 and 2 , name the one with the higher CLint scaled at 1 µM. Write the label of whichever entry you select.
a: 2

====

assay: Oral bioavailability in Sprague-Dawley rat at 1 mg/kg measured upto 8 hrs by LC-MS/MS analysis; assay type: ADME, organism-based; conditions: in vivo
OBSERVATION TYPE: bioavailability (%)

[1] Cn1cc(-c2ccnc(-n3ncc4cc(C(C)(C)C)cc(F)c4c3=O)c2CO)cc(NC(=O)[C@@H]2C[C@@H]2F)c1=O
[2] C[C@H]1CN(C2COC2)CCN1c1ccc(Nc2cc(-c3ccnc(N4CCn5c(cc6c5CC(C)(C)C6)C4=O)c3CO)cn(C)c2=O)nc1
q: Compare reported bioavailability values for 1 and 2 . Which is lower? Pick one; state its label.
a: 1

====

test: Metabolic stability in human Hepatocyte assessed as intrinsic clearance at 1 uM measured upto 60 mins by LC-MS/MS analysis; assay type: ADME, cell-based; conditions: hepatocytes, read-out: CLH
OBSERVATION TYPE: CLint scaled at 1 µM (mL/min/kg)

[I] C[C@H]1CN(C2COC2)CCN1c1ccc(Nc2cc(-c3ccnc(N4CCn5c(cc6c5CC(C)(C)C6)C4=O)c3CO)cn(C)c2=O)nc1
[II] Cn1cc(-c2ccnc(-n3ncc4cc(C(C)(C)C)cc(F)c4c3=O)c2CO)cc(NC(=O)[C@@H]2C[C@@H]2F)c1=O
q: Quick check, higher CLint scaled at 1 µM between I and II ? Kindly give the label for the entry you pick.
a: I

====

assay: Clearance in Beagle dog at 1 mg/kg, iv measured upto 24 hrs by LC-MS/MS analysis; format: ADME, organism-based, Canis lupus familiaris; conditions: in vivo
OBSERVATION TYPE: clearance (mL/min/kg)

[P] C[C@H]1CN(C2COC2)CCN1c1ccc(Nc2cc(-c3ccnc(N4CCn5c(cc6c5CC(C)(C)C6)C4=O)c3CO)cn(C)c2=O)nc1 [FENEBRUTINIB]
[Q] Cn1cc(-c2ccnc(-n3ncc4cc(C(C)(C)C)cc(F)c4c3=O)c2CO)cc(NC(=O)[C@@H]2C[C@@H]2F)c1=O
q: Higher clearance: P or Q ? Give the label of your selection.
a: P

====

experiment: Metabolic stability in rat Hepatocyte assessed as intrinsic clearance at 1 uM measured upto 60 mins by LC-MS/MS analysis; type: ADME, cell-based; conditions: hepatocytes, read-out: CLH
OBSERVATION TYPE: CLint scaled at 1 µM (mL/min/kg)

{"MOLECULE": "Cn1cc(-c2ccnc(-n3ncc4cc(C(C)(C)C)cc(F)c4c3=O)c2CO)cc(NC(=O)[C@@H]2C[C@@H]2F)c1=O", "CLint scaled at 1 µM, mL/min/kg": 11}
{"MOLECULE": "C[C@H]1CN(C2COC2)CCN1c1ccc(Nc2cc(-c3ccnc(N4CCn5c(cc6c5CC(C)(C)C6)C4=O)c3CO)cn(C)c2=O)nc1 [FENEBRUTINIB]", "CLint scaled at 1 µM, mL/min/kg": 10}

Values from ChEMBL document CHEMBL4619817
